Data origin: PubChem BioAssay (NCI)

Tested on: OVCAR-5 ovarian
Test: NCI tumour cell line growth inhibition, 48 h
Reported TGI values are given for each entry in this list.

COc1cc(C#CC(=O)OC/C=C/c2ccc3c(c2)OCO3)cc(OC)c1OC :: > 100 µM
C=C1C(=O)C[C@H]2C(=C)C(=O)O[C@@H]2C2C1CC[C@@]2(C)O (stereo partly drawn) :: > 100 µM

Which value of TGI has been reported for Nc1c2c(nc3cc(F)c(F)cc13)CCC2 in the records?
> 100 µM

====

Tested on: ACHN renal
Experiment: NCI tumour cell line growth inhibition, 48 h
measure name: TGI

C=CCCCCC/C=C\[C@H](O)C#CC#C/C=C/CO :: > 100 µM
C/C(=N\NC(=S)N1CCCCC1)c1nc2ncccc2[nH]1 :: > 100 µM
COC(=O)c1ccc(C(=O)NC(Cc2ccc(Oc3cc(CC(NC(=O)c4ccccc4C(=O)OC)C(=O)OC)ccc3OC)cc2)C(=O)OC)cc1 (stereo not drawn) :: > 100 µM
S=C(Nc1ccccc1)N(/N=C/C=C/c1ccccc1)c1nnc(-c2ccccc2)c(-c2ccccc2)n1 :: > 100 µM

// returns reported TGI for input O=C1NC(=O)C(c2c[nH]c3ccccc23)=C1c1cnc[nH]1
> 100 µM

Continue with Cc1cc2c(cc1Cl)SC(NS(=O)(=O)c1ccc(Cl)cc1)=NS2(=O)=O
> 100 µM

====

# TGI values compiled below
System: ACHN renal
Assay: NCI tumour cell line growth inhibition, 48 h

Some compounds with known TGI results, for comparison:
Oc1c(C2=NNC(c3ccc(Cl)cc3Cl)C2)ccc2ccccc12 (stereo not drawn) :: > 100 µM
COc1cc(N(CCC#N)CCC#N)ccc1/C(N=Nc1ccc([N+](=O)[O-])cc1)=N/NC(=O)c1cc(Br)ccc1O :: 131 µg/mL

Pending compound:
Would you kindly share the measured TGI for CCOC(=O)C1(C#N)C(c2ccccc2)CC(O)(c2ccc(OC)cc2)C(C(=O)c2ccc(OC)cc2)C1c1ccccc1 (stereo not drawn) ?
> 100 µM

====

Test system: EKVX NSCLC
Assay: NCI tumour cell line growth inhibition, 48 h
measure name: TGI

Known results for compounds:
COc1ccc(C2COc3cc(OC(C)=O)c(OC(C)=O)cc3C2)cc1 (configuration not stated) :: 51.1 µM
Cc1cc(N)c(C)c2c1[nH]c1ccc(O)cc12 :: > 100 µM
CC(=O)c1ccc(NCc2cc(O)ccc2O)cc1 :: > 100 µM
COc1cc(C(=O)n2c3ccc(Br)cc3c3nc4ccccc4nc32)cc(OC)c1OC :: > 100 µM

TGI for CC(=O)Nc1ccc(C(=O)NN2C(=O)CSC2c2ccc([N+](=O)[O-])cc2)cc1 (configuration not stated) ?
> 100 µM

Now this one: C=C1C(=O)C[C@H]2C(=C)C(=O)O[C@@H]2C2C1CC[C@@]2(C)O (some centres not stated)
> 100 µM

Then this compound: Nc1ccc(-c2nc3cc(F)ccc3s2)cc1Cl
> 48.2 µM

Same question, COc1cc(N(CCC#N)CCC#N)ccc1/C(N=Nc1ccc([N+](=O)[O-])cc1)=N/NC(=O)c1cc(Br)ccc1O this time
> 150 µg/mL

Please give the result for CO/N=C/c1cc(OC)c(OC)c(OC)c1 too.
> 100 µM

====

System: HOP-92 NSCLC
Test: NCI tumour cell line growth inhibition, 48 h
measure name: log10 of TGI (log10 of the value in µM)
Lab note - TGI converted to log10 from values in µM.

Solved entries (count: 8):
N#Cc1nc(Nc2cccc3ccccc23)sc1N :: 1.72
COc1cc(C2CC(c3cccc(Br)c3)=NN2C(C)=O)cc(OC)c1OC (stereo not given) :: 1.92
CCCn1c2ccccc2c2ccc3c(c21)C(=O)C=CC3=O :: 0.58
O=c1cnn(C/C=C/CBr)c(=O)[nH]1 :: 1.46
COc1ccc2c(c1)CCCC(Br)C2=O (stereo not given) :: 1.37
CCC[CH2][Sn]1([CH2]CCC)[O]N=C(c2ccccc2)C(c2ccccc2)[O]1 (stereo not given) :: 0.47
Cc1ccc(NC(=O)C(=O)C(C(=O)c2ccc3ccccc3c2)C2OC(=O)c3ccccc32)cc1C (stereo not given) :: 1.61
COc1cc(C2SCC(=O)N2c2ccccn2)cc(OC)c1OC (stereo not given) :: 1.95

Recorded log10 of TGI for O=C(C=P(c1ccccc1)(c1ccccc1)c1ccccc1)c1ccc(-c2cccc([N+](=O)[O-])c2)s1 , please?
1.91

What do we get for Cc1cc2c(cc1Cl)SC(NS(=O)(=O)c1ccc(Cl)cc1)=NS2(=O)=O ?
1.60

And the next one, NC(=O)NC1C(c2ccccc2)=C1c1ccccc1 ?
1.58

Now consider CC(C)c1ccc2c(c1)CC[C@@H]1[C@@](C)(C(=O)O)CCC[C@]21C .
1.89

====

Listed compounds paired with reported TGI
System: SN12C renal
Experiment: NCI tumour cell line growth inhibition, 48 h

Example compounds with recorded TGI:
O=Cc1cn(CCCCCCCCCCCCn2cc(C=O)c3ccccc32)c2ccccc12 :: > 100 µM
COc1cc(N(CCC#N)CCC#N)ccc1/C(N=Nc1ccc([N+](=O)[O-])cc1)=N/NC(=O)c1cc(Br)ccc1O :: > 150 µg/mL
NC(=Nc1c([N+](=O)[O-])cnc2ccccc12)N1CCOCC1 :: > 100 µM

// TGI lookup, key: S=C1NC2(CCCCCC2)NN1c1ccccc1
> 100 µM

Now this one: CC(=O)c1ccc(NCc2cc(O)ccc2O)cc1
92.8 µM

Let us now turn to Clc1nc2ccccc2nc1CI
15.6 µM

Here is the next compound: [N-]=[N+]=NC12CC3C4CC5CC3C(C1)C(C5)C4C2
> 100 µM

====

Test system: SR leukemia
Assay: NCI tumour cell line growth inhibition, 48 h
measure name: TGI

O=C(O)CCC(=O)c1ccc[nH]1 :: > 100 µM
Nc1ccc(-c2nc3cc(F)ccc3s2)cc1Cl :: 9.4 µM

Could you tell me which TGI is on file for C=C1CC[C@@H]2[C@](C)(COC(C)=O)[C@H](OC(C)=O)CC[C@@]2(C)[C@@H]1CC(Sc1ccccc1)C1=CCOC1=O (stereo partly specified) ?
3.66 µM

Entry to check: CCCCc1c(N(C)C)c(OC(C)=O)c(-c2cn(C)c3ccccc23)oc1=O
> 100 µM

// next record COc1cccc(/C=C/c2cc(OC)c(OC)c(OC)c2)c1
> 100 µM

What do you get for O=S1(=O)C[C@H](O)[C@H](O)CS1 ?
> 100 µM

Try this molecule too: C[N+](CCCl)(CCCl)Cc1cccc2cccc([N+](=O)[O-])c12
> 100 µM

====

System: IGROV1 ovarian
Test: NCI tumour cell line growth inhibition, 48 h
measure name: TGI

Examples with their reported TGI follow.
CN(C)c1nc2ccccc2[nH]1 :: > 100 µM
Nc1c2c(nc3cc(F)c(F)cc13)CCC2 :: > 100 µM
CCCC(=O)n1[nH]c(=O)n(-c2ccc(Cl)cc2)c1=O :: > 100 µM
Cn1c2ccccc2c2c3c(c4c5cc(Br)ccc5n(C)c4c21)C(=O)N(O)C3=O :: > 100 µM
OC1[C@@H]2[C@@H](O)[C@H](O)[C@@H](O)N2C[C@@H]1O (stereo partly specified) :: > 100 µM

Query molecule follows.
What TGI appears in the records for this molecule with IGROV1 ovarian? COc1cccc2c1OC(c1ccc(Cl)cc1)C([N+](=O)[O-])=C2 (stereo unspecified)
9.19 µM

====

Tested on: M14 melanoma
Assay: NCI tumour cell line growth inhibition, 48 h
Parameter TGI: see the listing below.

Past entries and their recorded results:
COc1cc(C(Cc2ccccc2)NC(C)=O)oc(=O)c1 (stereo not drawn) :: > 100 µM
CC1(c2cccs2)CC(c2cccs2)=C(C#N)C(=C(C#N)C#N)N1 (stereo not drawn) :: 40.5 µM

Kindly review the next compound as well.
# get_value(readout='TGI', item= COc1ccc2c3c([nH]c2c1[N+](=O)[O-])C(C)=NCC3 )
> 100 µM

====

Test system: SNB-19 CNS
Test: NCI tumour cell line growth inhibition, 48 h
# key: entry, value: TGI

Guide cases for TGI, answers given:
Cn1cc(CO)c2c1C(=O)C=C(N1CC1)C2=O :: 0.862 µM
COc1cc(C(=O)n2c3ccc(Br)cc3c3nc4ccccc4nc32)cc(OC)c1OC :: > 100 µM
CC1(C)CC(=O)c2[nH]c3ccccc3c2CC(=O)NCCc2cn1cn2 :: > 100 µM
c1nc(OCC2CCCCC2)c2[nH]cnc2n1 :: > 100 µM
CC1=CC(C)C/C=C/C2C3OC3(C)C(C)C3C(Cc4c[nH]c5ccccc45)NC(=O)C23C(=O)C=CC(=O)C1O (stereo unspecified) :: > 46.6 µM
CCOc1cc2c(OCc3ccccc3)cc3c4cc(OC)c(OC)cc4c[n+](C)c3c2cc1OC :: 2.44 µM
CCCCN(CCCC)CC(O)c1cc(-c2ccc(C(F)(F)F)cc2)nc(-c2ccc(C(F)(F)F)cc2)c1 (stereo unspecified) :: > 100 µM
Oc1cn(-c2ccc(Cl)cc2)nc1-c1nnc(-c2ccccc2)o1 :: > 68.5 µM
CC(CCC=O)CCOCc1ccccc1 (stereo unspecified) :: > 100 µM
Nc1c2c(nc3cc(F)c(F)cc13)CCC2 :: > 100 µM

Given the entry N#Cc1c(-c2ccc(Cl)cc2)c2c([nH]c1=O)-c1ccccc1SC2 , report its measured TGI.
> 100 µM

Further, for N#Cc1nc(Nc2cccc3ccccc23)sc1N ?
> 100 µM

Please give the result for O=C1NC(=O)C(c2cnc3ccccn23)=C1c1cn2c3c(cc(F)cc13)CN(C(=O)N1CCCCC1)CC2 too.
> 87.5 µM
